Cited source for all entries: the RepoRT retention time repository

assay-method-text: RP, Waters Atlantis T3, 50 × 4.6 mm, 5 µm, 40 °C, 0.8 mL/min, estimated dead time 0.66 min; A: water + 0.05% trifluoroacetic acid; B: acetonitrile + 0.1% formic acid, pH 3; gradient (min/%B) 0/10 1/10 7/95 12/95 12.5/10 14/10
stated-conditions: stereoisomer not certain
Label Satisfied when LC retention time >= 5 min; otherwise Not satisfied.

>  <compound>
CCC(C)CCCC(=O)NC(CCN)C(=O)NC(C(=O)NC(CCN)C(=O)NC1CCNC(=O)C(C(C)O)NC(=O)C(CCN)NC(=O)C(CCN)NC(=O)C(CC(C)C)NC(=O)C(CC(C)C)NC(=O)C(CCN)NC1=O)C(C)O (stereo not given)

>  <category>
Not satisfied

$$$$
>  <compound>
COC1C(OC(N)=O)C(O)C(Oc2ccc3c(O)c(NC(=O)c4ccc(O)c(CC=C(C)C)c4)c(=O)oc3c2C)OC1(C)C (stereo not given)

>  <category>
Satisfied

$$$$
>  <compound>
C=C(NC(=O)c1csc(-c2nc3c(cc2O)-c2nc(cs2)C(=O)NC(C(C)O)C(=O)NC(=CC)c2nc(cs2)C(=O)NC2CC(O)C(=O)OCc4cccc5[nH]c(c(C)c45)C(=O)SCC(NC(=O)c4csc2n4)c2nc-3cs2)n1)C(N)=O (stereo not given) [Nosiheptide]

>  <category>
Satisfied

$$$$
>  <compound>
CC1C(NC(=O)C(=NOC(C)(C)C(=O)O)c2csc(N)n2)C(=O)N1S(=O)(=O)O (stereo not given)

>  <category>
Not satisfied

$$$$
>  <compound>
COc1cccc2c1C(=O)c1c(O)c3c(c(O)c1C2=O)CC(O)(C(C)=O)CC3OC1CC(N)C(O)C(C)O1 (stereo not given)

>  <category>
Satisfied

$$$$

====

assay-method-text: RP, Waters Atlantis T3, 50 × 4.6 mm, 5 µm, 40 °C, 0.8 mL/min, estimated dead time 0.66 min; A: water + 0.05% trifluoroacetic acid; B: acetonitrile + 0.1% formic acid, pH 3; gradient (min/%B) 0/10 1/10 7/95 12/95 12.5/10 14/10
stated-conditions: stereoisomer not certain

>  <compound>
CC=CC=CC1OC(O)(C(CC)C(=O)NCC=CC=C(C)C(OC)C(C)C2OC(C=CC=CC=C(C)C(=O)c3c(O)cc[nH]c3=O)C(O)C2O)C(O)C(O)C1(C)C (centres undefined) [Kirromycin]

>  <unit-abbrev>
min

>  <LC retention time>
6.52

$$$$
>  <compound>
CC(=O)OC1CC2(C)C(CC(O)C3C4(C)CCC(O)C(C)C4CCC32C)C1=C(CCC=C(C)C)C(=O)O (centres undefined) [Fusidinic acid]

>  <unit-abbrev>
min

>  <LC retention time>
8.3

$$$$
>  <compound>
CCCCCCCCCC(=O)NC(Cc1c[nH]c2ccccc12)C(=O)NC(CC(N)=O)C(=O)NC(CC(=O)O)C(=O)NC1C(=O)NCC(=O)NC(CCCN)C(=O)NC(CC(=O)O)C(=O)NC(C)C(=O)NC(CC(=O)O)C(=O)NCC(=O)NC(CO)C(=O)NC(C(C)CC(=O)O)C(=O)NC(CC(=O)c2ccccc2N)C(=O)OC1C (centres undefined) [Daptomycin]

>  <unit-abbrev>
min

>  <LC retention time>
5.79

$$$$
>  <compound>
CC(=O)NC1C(OC2c3ccc(c(Cl)c3)Oc3cc4cc(c3O)Oc3ccc(cc3Cl)CC3NC(=O)C(N)c5ccc(O)c(c5)Oc5cc(O)cc(c5)C(NC3=O)C(=O)NC4C(=O)NC3C(=O)NC2C(=O)NC(C(=O)O)c2cc(O)cc(OC4OC(CO)C(O)C(O)C4O)c2-c2cc3ccc2O)OC(CO)C(O)C1O (centres undefined) [Teicoplanin A3-1]

>  <unit-abbrev>
min

>  <LC retention time>
4.02

$$$$

====

assay-method-text: RP, Waters Atlantis T3, 50 × 4.6 mm, 5 µm, 40 °C, 0.8 mL/min, estimated dead time 0.66 min; A: water + 0.05% trifluoroacetic acid; B: acetonitrile + 0.1% formic acid, pH 3; gradient (min/%B) 0/10 1/10 7/95 12/95 12.5/10 14/10
stated-conditions: stereoisomer not certain
Listing of recorded LC retention time by entry.
assay-readout: LC retention time

>  <molecule>
CCCC=CC=CC(=O)NC(CC(N)=O)C(=O)NC(CC(N)=O)C(=O)NC(C(=O)NC(CCCN)C(=O)NC(C(=O)NC(C(=O)NC(C(=O)NC(C(=O)NC(Cc1ccccc1)C(=O)NC(CCCN)C(=O)NC(C(=O)NC(C(=O)NC(C(=O)NCC(=O)NC(CC(C)C)C(=O)NC(C)C(=O)NC(C(=O)O)C1CCC(O)C(Cl)C1)C1CCC(O)CC1)C(C)O)C1CCC(O)CC1)C(C)O)C1CCC(O)CC1)C1CCC(O)CC1)C(C)O)C1CCC(O)CC1 (configuration not stated) [Ramoplanin A]

>  <result>
5.22 min

$$$$
>  <molecule>
CCCC1CC(C(=O)NC(C(C)Cl)C2OC(SC)C(O)C(O)C2O)N(C)C1 (configuration not stated) [Clindamycin]

>  <result>
4.83 min

$$$$
>  <molecule>
COc1cc(Cc2cnc(N)nc2N)cc(OC)c1OC [Trimethoprim]

>  <result>
4.06 min

$$$$
>  <molecule>
CC1(C)SC2C(NC(=O)C(N)c3ccccc3)C(=O)N2C1C(=O)O (configuration not stated) [Ampicillin]

>  <result>
4.09 min

$$$$
>  <molecule>
CCC(C(=O)O)C1CCC(C)C(C(C)C(O)C(C)C(=O)C(CC)C2OC3(C=CC(O)C4(CCC(C)(C5CCC(O)(CC)C(C)O5)O4)O3)C(C)CC2C)O1 (configuration not stated) [Salinomycin]

>  <result>
11.2 min

$$$$
>  <molecule>
COC1C=COC2(C)Oc3c(C)c(O)c4c(O)c(c(C=NN5CCN(C)CC5)c(O)c4c3C2=O)NC(=O)C(C)=CC=CC(C)C(O)C(C)C(O)C(C)C(OC(C)=O)C1C (configuration not stated) [Rifampicin]

>  <result>
6.17 min

$$$$
>  <molecule>
CC1(C)SC2C(NC(=O)Cc3ccccc3)C(=O)N2C1C(=O)O (configuration not stated) [Penicillin G]

>  <result>
5.75 min

$$$$

====

assay-method-text: RP, Waters Atlantis T3, 50 × 4.6 mm, 5 µm, 40 °C, 0.8 mL/min, estimated dead time 0.66 min; A: water + 0.05% trifluoroacetic acid; B: acetonitrile + 0.1% formic acid, pH 3; gradient (min/%B) 0/10 1/10 7/95 12/95 12.5/10 14/10
stated-conditions: stereoisomer not certain
assay-readout: LC retention time (min)

>  <compound>
CNC(=O)CC1NC(=O)c2csc(n2)-c2ccc(-c3nc(C4=NC(C(=O)N5CCCC5C(N)=O)CO4)cs3)nc2-c2csc(n2)-c2csc(n2)C(C(O)c2ccccc2)NC(=O)CNC(=O)c2nc(sc2COC)C(C(C)C)NC(=O)c2nc1sc2C (centres undefined) [GE2270A]

>  <assay-readout>
LC retention time

>  <unit-abbrev>
min

>  <readout-number>
6.62

$$$$
>  <compound>
CNC(CC(C)C)C(=O)NC1C(=O)NC(CC(N)=O)C(=O)NC2C(=O)NC3C(=O)NC(C(=O)NC(C(=O)O)c4cc(O)cc(O)c4-c4cc3ccc4O)C(O)c3ccc(c(Cl)c3)Oc3cc2cc(c3OC2OC(CO)C(O)C(O)C2OC2CC(C)(N)C(O)C(C)O2)Oc2ccc(cc2Cl)C1O (centres undefined)

>  <assay-readout>
LC retention time

>  <unit-abbrev>
min

>  <readout-number>
3.55

$$$$
>  <compound>
CCC1OC(=O)C(C)C(OC2CC(C)(OC)C(O)C(C)O2)C(C)C(OC2OC(C)CC(N(C)C)C2O)C(C)(OC)CC(C)C(=O)C(C)C(O)C1(C)O (centres undefined)

>  <assay-readout>
LC retention time

>  <unit-abbrev>
min

>  <readout-number>
5.91

$$$$
>  <compound>
C=C(NC(=O)C(=C)NC(=O)c1csc(C2=NC3c4csc(n4)C4NC(=O)c5csc(n5)C(C(C)(O)C(C)O)NC(=O)C5CSC(=N5)C(=CC)NC(=O)C(C(C)O)NC(=O)c5csc(n5)C3(CC2)NC(=O)C(C)NC(=O)C(=C)NC(=O)C(C)NC(=O)C(C(C)CC)NC2C=Cc3c(C(C)O)cc(nc3C2O)C(=O)OC4C)n1)C(N)=O (centres undefined)

>  <assay-readout>
LC retention time

>  <unit-abbrev>
min

>  <readout-number>
6.65

$$$$
